Assay: NCI Yeast Anticancer Drug Screen. Data for the rad50 strain (AID 155);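 also: 0% = growth of vehicle-only cultures of the same strain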
Conditions: S. cerevisiae rad50 strain growth inhibition; at 50.0 µM (retest, dose inferred, filed as 5.0)
Compounds without any hit were thinned out: in the full panel of roughly 79,000, 15% have a hit. The source made the active and inactive calls. Rule as the data show it: active = growth inhibition above about 70%; inactive = the rest.
The reply should be one of these categories: active, inactive

Example entries begin here.
COMPOUND | LABEL_CLASS
Cc1cc(O)cc2c1c(=O)c1ccccc1n2C | inactive
O=[N+]([O-])C1CCC(C2=CSC3CCCCC3N2)CC1 (configuration not stated) | inactive
CC(C)C1=C2CCC3(C)C(CCC4C5C6OCC5(CCC6(C)C)CCC43C)C2(C)CC1 (configuration not stated) | inactive
Cc1[nH]c2ccccc2c1/C=C1/CCCCCCC1=O | inactive
COC(OC)(c1ccccc1)C(Br)Br | inactive
CC(=O)CC(=O)OCc1ccccc1 | active

Next compound, please.
Q: Entry Nc1ccc2nc(Nc3ccc(F)cc3)cnc2c1 : call = ?
Ans: inactive

====

Test: NCI Yeast Anticancer Drug Screen. Data for the rad50 strain (AID 155);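 also: 0% = growth of vehicle-only cultures of the same strain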
Settings: S. cerevisiae rad50 strain growth inhibition; at 50.0 µM (retest, dose inferred, filed as 5.0); stronger effect = higher value
This is part of a sample that, as a whole, favours compounds with a hit. Of some 79,000 tested, about 15% had one in any assay. The source made the active and inactive calls. Cut-off read from the data, not from the text of the source: active = growth inhibition above about 70%; inactive = the rest.
PROPERTY: growth inhibition

// below: answered compounds
COMPOUND | VALUE_OBSERVED
COc1ccc2c(c1)[n+]([O-])c(S(=O)(=O)c1ccc(C)cc1)c(N)[n+]2[O-] | 80% (active)
[N-]=[N+]=Nc1c(C=O)c(=O)n(-c2ccccc2)c2ccccc12 | 57% (inactive)

Q: Value lookup for growth inhibition; key = C=C1C[C@H](O)[C@H]2C(C[Se]c3ccccc3)C(=O)O[C@@H]2[C@H]2[C@H](C)C(O)C[C@@H]12 (some centres undefined)
Ans: 35% (inactive)

Q: Value lookup for growth inhibition; key = O=C1c2ccccc2C(=O)N1C(=NCc1ccccc1)c1ccccc1
Ans: 70% (active)

Q: Value lookup for growth inhibition; key = CC1=C(C)C(=O)C(CNCc2ccccc2)=[C-]C1=O.[Co].[c-]1[c-][c-][cH-][c-]1
Ans: -13% (inactive)

Q: Value lookup for growth inhibition; key = CN(C(=O)c1cccs1)C(=S)N1CCN(c2ccccc2)CC1
Ans: 66% (inactive)

Q: Value lookup for growth inhibition; key = O=S(=O)(N/N=C/c1ccc(Cl)cc1Cl)c1ccccc1
Ans: -11% (inactive)

Q: Value lookup for growth inhibition; key = CC/C(=C(\CC)c1ccc(OCCN2CCOCC2)cc1)c1ccc(OCCN2CCOCC2)cc1
Ans: 63% (inactive)

Q: Value lookup for growth inhibition; key = N#CC1(C#N)C2C=CC(c3coc4cccc2c34)C1(C#N)C#N (centres undefined)
Ans: 37% (inactive)

Q: Value lookup for growth inhibition; key = O=C1C(=O)c2cc(Br)cc([N+](=O)[O-])c2-c2ccc(Br)cc21
Ans: 96% (active)

====

Experiment: NCI Yeast Anticancer Drug Screen. Data for the rad50 strain (AID 155);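 also: 0% = growth of vehicle-only cultures of the same strain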
Details: S. cerevisiae rad50 strain growth inhibition; at 50.0 µM (retest, dose inferred, filed as 5.0)
Method: Growth inhibition of yeast strains with defined genetic alterations is measured as a screen for potential anti-cancer activity. Selected strains with alterations in DNA damage repair or cell cycle control were exposed to compounds and growth inhibition was measured relative to vehicle treated controls. The strain used in this assay is rad50
Compounds without any hit were thinned out: in the full panel of roughly 79,000, 15% have a hit. Calls of active or inactive are those of the source. No stated cut-off is given here; in the data, active means growth inhibition above about 70%; inactive means the rest.
The reply should be one of these categories: active, inactive

Example entries begin here.
MOLECULE | LABEL_CLASS
Clc1ccc(OCCC(Cn2ccnc2)c2ccc(Cl)cc2Cl)c(Cl)c1 (centres undefined) | active
COC(=O)C1(c2ccc(N(C)C)cc2OC)CCCN(C(=O)Oc2ccccc2[N+](=O)[O-])CCc2c1[nH]c1ccccc21 (centres undefined) | active

Q: Entry C1=Nc2ccccc2C=Nc2ccccc2C=Nc2ccccc2C=Nc2ccccc21.[Cl-].[Pt+2] : call = ?
Ans: active

Q: Entry CCCCCCC(OCCC)OCCC : call = ?
Ans: inactive
